TEST_METHOD_NOTES: Inhibition of tRNA-guanine transglycosylase (unknown origin) assessed as entropy at 25 degC at 200 to 300 uM by isothermal titration calorimetry
OBSERVATION_TYPE: -TdeltaS (kcal/mol)

Some compounds with recorded -TdeltaS:
SMI	MEASURED
Nc1nc2cc3[nH]c(NCCN4CCOCC4)nc3cc2c(=O)[nH]1	12.9
Nc1nc2cc3[nH]c(NCCN4CCCCC4)nc3cc2c(=O)[nH]1	8.68
CNc1nc2cc3c(=O)[nH]c(N)nc3cc2[nH]1	13.3
O=c1[nH]cnc2cc3nc(NCCN4CCOCC4)[nH]c3cc12	2.92
CNc1nc2cc3c(=O)[nH]cnc3cc2[nH]1	2.68

1 = O=c1[nH]cnc2cc3nc(NCc4cccs4)[nH]c3cc12
2 = Nc1nc2cc3nc(NCc4cccs4)[nH]c3cc2c(=O)[nH]1
3 = O=c1[nH]cnc2cc3[nH]c(NCCN4CCCCC4)nc3cc12
Arrange the 3 compounds by rising -TdeltaS, starting with the smallest. Write the labels, ordered according to the request. 1, 3, 2

----------
TEST_METHOD_NOTES: Inhibition of tRNA-guanine transglycosylase (unknown origin) assessed as buffer-corrected enthalpy values at 25 degC at 200 to 300 uM by isothermal titration calorimetry
OBSERVATION_TYPE: deltaH (kcal/mol)

Reference set (5 entries):
SMI	deltaH / kcal/mol
O=c1[nH]cnc2cc3nc(NCCN4CCOCC4)[nH]c3cc12	-11.7
Nc1nc2cc3[nH]c(NCCN4CCOCC4)nc3cc2c(=O)[nH]1	-23
O=c1[nH]cnc2cc3[nH]c(NCCN4CCCCC4)nc3cc12	-12.1
Nc1nc2cc3nc(NCc4cccs4)[nH]c3cc2c(=O)[nH]1	-15.8
CNc1nc2cc3c(=O)[nH]c(N)nc3cc2[nH]1	-23.3

A = Nc1nc2cc3[nH]c(NCCN4CCCCC4)nc3cc2c(=O)[nH]1
B = O=c1[nH]cnc2cc3nc(NCc4cccs4)[nH]c3cc12
Hey, which is lower on measured deltaH, A or B ? Choose, then provide that item's label. A
